- Tested on: UACC-257 melanoma
- Method: NCI-60 one-dose screen, 48 h
- Measurement context: 10 µM unless noted
Compounds without any hit were thinned out: in the full panel of roughly 83,000, 20% have a hit. Calls of active or inactive are those of the source. The calls were made as follows: active = growth percent below 10; inactive = the rest.
Possible outcomes: active, inactive

# Molecule, Class name
data = [
    ("O=C(CSc1nc2sc3c(c2c(=O)n1-c1ccc(Cl)cc1)CCCC3)N/N=C/C=C/c1ccccc1", "active"),
    ("Oc1cncc(-c2ccc3ncnc(N4CCc5cc(F)c(Cl)cc54)c3c2)c1", "inactive"),
    ("Fc1ccccc1CNc1nc(SCCN2CCOCC2)nc2c1cnn2CC(Cl)c1ccc(Br)cc1 (stereo not given)", "active"),
    ("CC1=C(C)C(=O)C(NCCN2CCOCC2)=C(Br)C1=O", "active"),
    ("COc1ccc2[nH]c(O)c(N=Nc3nc(-c4ccc(C#N)cc4)cs3)c2c1", "inactive"),
]

----------
- Test system: PC-3 prostate
- Method: NCI-60 one-dose screen, 48 h (100 = growth as untreated, 0 = no growth, -100 = all killed)
- Measurement context: 1 µM
About 83,000 compounds went through this panel and 20% of them were active in at least one assay; those are over-represented in the sample as a whole.
Metric name: growth (%)

# Given smiles, Measured result
measured = [
    ("CC/C(=C(/c1ccc(O)cc1)c1ccc(OCCN(C)C(=O)COCCOCCNC(=O)Cc2ccc3c(c2)CN([C@@H]2CCC(=O)NC2=O)C3=O)cc1)c1ccccc1", 52.8),
    ("CC/C(=C(\\c1ccc(O)cc1)c1ccc(OCCNC)cc1)c1ccccc1", 101),
    ("CC/C(=C(\\c1ccc(O)cc1)c1ccc(OCCN(C)C(=O)CCOCCNC(=O)c2ccc3c(c2)CN([C@@H]2CCC(=O)NC2=O)C3=O)cc1)c1ccccc1", 54.2),
    ("CC/C(=C(/c1ccc(O)cc1)c1ccc(OCCN(C)C(=O)CCOCCNC(=O)Cc2ccc3c(c2)CN([C@@H]2CCC(=O)NC2=O)C3=O)cc1)c1ccccc1", 42.7),
]

----------
- System: KM12 colon
- Method: NCI-60 one-dose screen, 48 h (100 = growth as untreated, 0 = no growth, -100 = all killed)
- Measurement context: 10 µM unless noted
The panel holds about 83,000 compounds, 20% with a hit somewhere; the sample as a whole holds those more often. Active and inactive are the calls of the source. The calls were made as follows: active = growth percent below 10; inactive = the rest.
Some molecules, each annotated with its measured growth.

# Given smiles, growth
measured = [
    ("Cc1ccc(N=Nc2c(N)nn3c(-c4cc5ccccc5oc4=O)ccnc23)cc1", "31.3% (inactive)"),
    ("COc1cc2cc(C(=O)N3C[C@@H](CCl)c4c3cc(OC(=O)N(CCC(=O)N3CCN(C)CC3)[C@H]3CCSSC3)c3ccccc43)[nH]c2c(OC)c1OC", "-29% (active)"),
    ("C=CC(=O)N1CCN(c2ccc3nc4c(nc3c2C(F)(F)F)C(=O)c2ncccc2C4=O)CC1", "9.15% (active)"),
    ("CN(C)c1nc(NCCNS(=O)(=O)c2ccc(C(=O)/C=C/c3ccc(F)cc3)cc2)nc(N2CCOCC2)n1", "-42.5% (active)"),
]

----------
- System: SF-268 CNS
- Method: NCI-60 one-dose screen, 48 h (100 = growth as untreated, 0 = no growth, -100 = all killed)
- Measurement context: 10 µM
This is part of a sample that, as a whole, favours compounds with a hit. Of some 83,000 tested, about 20% had one in any assay.
Quick rule for you: growth at 70% or higher means Condition met, lower means Condition not met.

# Given smiles, Class name
records = [
    ("CC/C(=C(/c1ccc(O)cc1)c1ccc(OCCN(C)C(=O)COCCOCCNC(=O)Cc2ccc3c(c2)CN([C@@H]2CCC(=O)NC2=O)C3=O)cc1)c1ccccc1", "Condition not met"),
    ("CC/C(=C(\\c1ccc(O)cc1)c1ccc(OCCNC)cc1)c1ccccc1", "Condition met"),
    ("CC/C(=C(/c1ccc(O)cc1)c1ccc(OCCN(C)C(=O)CCOCCNC(=O)Cc2ccc3c(c2)CN([C@@H]2CCC(=O)NC2=O)C3=O)cc1)c1ccccc1", "Condition met"),
    ("CC/C(=C(\\c1ccc(O)cc1)c1ccc(OCCN(C)C(=O)COCCNC(=O)Cc2ccc3c(c2)CN([C@@H]2CCC(=O)NC2=O)C3=O)cc1)c1ccccc1", "Condition not met"),
    ("CC/C(=C(/c1ccc(O)cc1)c1ccc(OCCN(C)C(=O)COCCOCCNC(=O)c2ccc3c(c2)CN([C@@H]2CCC(=O)NC2=O)C3=O)cc1)c1ccccc1", "Condition met"),
    ("CC/C(=C(\\c1ccc(O)cc1)c1ccc(OCCN(C)C(=O)CCOCCNC(=O)c2ccc3c(c2)CN([C@@H]2CCC(=O)NC2=O)C3=O)cc1)c1ccccc1", "Condition met"),
]

----------
- System: K-562 leukemia
- Method: NCI-60 one-dose screen, 48 h (100 = growth as untreated, 0 = no growth, -100 = all killed)
- Measurement context: 10 µM unless noted
About 83,000 compounds went through this panel and 20% of them were active in at least one assay; those are over-represented in the sample as a whole.
Simple rule here: growth less than 60% is 1, otherwise -1.

# Compound, Class name
records = [
    ("COc1cc(C2C(C(=O)OCc3ccccc3)=C(C)Nc3nc4ccccc4n32)cc(OC)c1OC (stereo not drawn)", 1),
    ("Cc1ccc(O)cc1Nc1nc(SCCN2CCOCC2)nc2c1cnn2CC(Cl)c1ccc(Br)cc1 (stereo not drawn)", 1),
    ("Cc1nn(-c2ccccc2)c2nc(C)n(C(=O)N/N=C/c3cccc([N+](=O)[O-])c3)c(=O)c12", -1),
    ("Nc1cc(-c2c[nH]c3ccc(F)cc23)nc2cc(-c3c[nH]c4ccccc34)nn12", 1),
    ("COC(=O)c1cc(C(C)=O)n2c3ccccc3c3ccccc3c12", -1),
    ("O=C1/C(=C/C=C/c2ccco2)SC(=S)N1CC(=S)C1C=CS(=O)(=O)C1 (stereo not drawn)", -1),
    ("CN(C)CCCc1ccc(Nc2cnn(C)c(=O)c2Cl)cc1", -1),
    ("CC(=O)C[n+]1cccc2c3ccccc3ccc21", -1),
    ("N#CC1=C(c2ccco2)Nc2c(c(-c3ccccc3)nn2-c2ccccc2)C12C(=O)Nc1ccc(Cl)cc12 (stereo not drawn)", 1),
    ("COc1ccc(C(=O)NNC(=O)CSc2nc3sc4c(c3c(=O)n2-c2ccc(Cl)cc2)CCCC4)cc1", 1),
    ("Cc1cc(C)c2[nH]c(=O)c(C(c3nnnn3Cc3ccc4c(c3)OCO4)N3CCN(C)CC3)cc2c1 (stereo not drawn)", -1),
    ("CC1CCc2c(sc3nc(SCC(=O)c4cccc(Br)c4)n(-c4ccccc4)c(=O)c23)C1 (stereo not drawn)", 1),
    ("O=CNc1cccc(-n2cnc3cc(-c4ccc(O)cc4)ccc32)c1", 1),
    ("Cc1ccc(/C=C/C(=O)c2ccc(S(=O)(=O)NCCNc3nc(N(C)C)nc(N4CCOCC4)n3)cc2)cc1", 1),
    ("CN(C)c1ccc(/C=C/c2n(Cc3ccc4ccccc4c3)c3ccccc3[n+]2Cc2ccc3ccccc3c2)cc1", 1),
    ("CC[C@]12C=CCN3CC[C@]4(C(=C(C(=O)OC)C1)Nc1cc(OC)c([C@@H]5[C@H]6O[C@H]6[C@@]6(CC)CC(C(=O)OC)=C7Nc8cc(OC)ccc8[C@@]78CCN5[C@@H]68)cc14)[C@@H]32", 1),
    ("COC(=O)c1ccc(-c2c(-c3ccccc3)c(F)c3oc(C(=O)OC)c(N)c3c2-c2ccccc2)cc1", -1),
]

----------
- Test system: SF-268 CNS
- Method: NCI-60 one-dose screen, 48 h
- Measurement context: 10 µM unless noted
The panel holds about 83,000 compounds, 20% with a hit somewhere; the sample as a whole holds those more often. Calls of active or inactive are those of the source. The calls were made as follows: active = growth percent below 10; inactive = the rest.
Possible outcomes: active, inactive

# Molecule, Class name
measured = [
    ("CS(=O)(=O)c1ccc(-n2nc(C(=O)NCc3ccccc3)cc2-c2ccc(Cl)cc2)cc1", "inactive"),
    ("Nc1cc2ccccc2c(=O)n1NC(=O)c1ccccc1", "inactive"),
    ("Cc1ccc(C2CC(c3ccc(NC(=S)Nc4ccccc4)cc3)=NN2c2ccc(S(N)(=O)=O)cc2)cc1 (stereo not given)", "inactive"),
    ("O=C1NC(=S)/C(=C/c2cn(-c3ccccc3)nc2-c2ccccc2)S1", "inactive"),
    ("COc1cccc(C(N)=Nc2ccc(OCCCCCCCCn3cncn3)cc2)c1", "inactive"),
    ("COC(=O)c1c(C(=O)OC)c2ccc3c4ccccc4ccc3n2c1C(=O)C(C)Br (stereo not given)", "inactive"),
    ("Nc1nn2c(-c3cc4cc(Br)ccc4oc3=O)ccnc2c1N=Nc1ccccc1", "active"),
    ("COc1cc(/C=C/C(=O)c2cnn(-c3cc(=O)[nH]c4ccc(C)cc34)c2C)cc(OC)c1OC", "active"),
    ("COc1ccc(N=Nc2c(N)nn3c(-c4ccc([N+](=O)[O-])cc4)ccnc23)cc1", "inactive"),
    ("CC1=C(C(=O)OC(C)C)C(c2ccc(O)cc2)NC(=O)N1 (stereo not given)", "inactive"),
    ("COc1ccc(-c2nc3ccc(-c4nnc(SCc5ccccc5)o4)cc3[nH]2)cc1OC", "inactive"),
    ("CN(C)CCCc1ccc(Nc2cnn(C)c(=O)c2Cl)cc1", "inactive"),
    ("COc1ccc(N=Nc2c(N)nn3c(N)c(C#N)c(-c4ccccc4)nc23)cc1", "inactive"),
    ("CC(C)(C)OC(=O)N1CCC2(CC1)Oc1ccccc1[C@H]1CC(c3ccc(Br)cc3)=NN12", "inactive"),
    ("CC1CCc2c(sc3nc(SCC(=O)c4cccc(Br)c4)n(-c4ccccc4)c(=O)c23)C1 (stereo not given)", "inactive"),
    ("C=CCSc1nnc(-c2ccc(-c3nc4ccc(Cl)cc4[nH]3)cc2)o1", "inactive"),
    ("CCN1CCN(Cc2ccc(C(=O)Nc3cccc(Nc4ccc5c(OC)cccc5n4)c3)cc2C(F)(F)F)CC1", "active"),
    ("COc1ccc(-c2nc3ccc(-c4nnc(SCC(=O)Nc5ccc(/C(C)=N\\O)cc5)o4)cc3[nH]2)cc1", "inactive"),
    ("CN(C)c1nc(NCCNS(=O)(=O)c2ccc(C(=O)/C=C/c3ccc(F)cc3)cc2)nc(N2CCOCC2)n1", "inactive"),
    ("N#CCc1nnc(NC(=O)c2ccc(-n3c(=O)[nH]c4ccccc4c3=O)cc2)s1", "inactive"),
]

From: PubChem BioAssay (NCI)
